For each of the binders below, state its Kd.
# target.of.assay: SARS-COV-2 RBD extracellular domain expressed with a C-terminal mouse IgG2a Fc (SARS-CoV-2)
# assay.protocol: Biacore SPR, mAb captured on anti-hFc, 37 C
Give bare numbers, in nM.

Please give Kd, item by item, for the list that follows.
1. mAb14315 (antibody, V domains shown) VH: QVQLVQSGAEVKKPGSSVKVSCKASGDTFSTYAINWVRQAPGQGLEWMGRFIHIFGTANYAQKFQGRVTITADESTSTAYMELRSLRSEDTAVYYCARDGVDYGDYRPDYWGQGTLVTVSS VL: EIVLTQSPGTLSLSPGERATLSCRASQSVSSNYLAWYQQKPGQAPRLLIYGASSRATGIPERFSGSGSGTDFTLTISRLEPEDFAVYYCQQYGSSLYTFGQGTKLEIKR
2. mAb14312 (antibody, V domains shown) VH: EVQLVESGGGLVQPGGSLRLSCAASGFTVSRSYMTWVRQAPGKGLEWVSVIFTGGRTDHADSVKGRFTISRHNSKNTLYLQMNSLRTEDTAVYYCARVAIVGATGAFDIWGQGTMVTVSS VL: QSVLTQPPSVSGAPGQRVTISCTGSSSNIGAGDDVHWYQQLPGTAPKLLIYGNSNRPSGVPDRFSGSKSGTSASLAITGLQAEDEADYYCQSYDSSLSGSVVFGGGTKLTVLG
3. mAb14283 (antibody, V domains shown) VH: QVQLQESGPGLVKPSGTLSLTCDVSGGSISSNNWWSWVRQRPGKGLQWIGEIYHNENTNYNPSLKSRVIMSIDKSKNQFSLKLTSVTAADTAVYYCARGDVLDWFDPWGQGTLVTVSS VL: QSALTQPASVSGSPGQSTTISCTGTSSDVGGYNYVSWYQQYPGKAPKLMIYDVTNRPSGVSHRFSGSKSGNTASLTISGLQAEDEADYYCSSYTSSSTVIFGGGTKLTVLG
4. mAb14281 (antibody, V domains shown) VH: QVQLVQSGADVKKPGASVKVSCKTSGYIFTGYYIHWVRQAPGQGLEWMGWINPNSGGTNSAQKFQGRVTMTRDTSISTVYMELSRLRSDDTAVYYCAKSNSFSVLDYNFDYWGQGTLVTVSS VL: SSELTQDPAVSVALGQTVRITCQGDSLRSYYASWYQQKPGQAPVLVIYDKNNRPSGIPDRFSGSSSGNTASLTITGAQAEDEADYYCNSRDSSRNHLVVFGGGTKLTVLG

Reply text:
0.0903
0.0347
0.0631
0.271
